# system-name: T1, human C-MET on stably transfected CHO-K1 cells (human, UniProt P08581 25-1390)
# T1 construct: also called hucMET; human C-MET+ CHO-K1 cells
# T1 sequence (P08581 25-1390 limits assumed): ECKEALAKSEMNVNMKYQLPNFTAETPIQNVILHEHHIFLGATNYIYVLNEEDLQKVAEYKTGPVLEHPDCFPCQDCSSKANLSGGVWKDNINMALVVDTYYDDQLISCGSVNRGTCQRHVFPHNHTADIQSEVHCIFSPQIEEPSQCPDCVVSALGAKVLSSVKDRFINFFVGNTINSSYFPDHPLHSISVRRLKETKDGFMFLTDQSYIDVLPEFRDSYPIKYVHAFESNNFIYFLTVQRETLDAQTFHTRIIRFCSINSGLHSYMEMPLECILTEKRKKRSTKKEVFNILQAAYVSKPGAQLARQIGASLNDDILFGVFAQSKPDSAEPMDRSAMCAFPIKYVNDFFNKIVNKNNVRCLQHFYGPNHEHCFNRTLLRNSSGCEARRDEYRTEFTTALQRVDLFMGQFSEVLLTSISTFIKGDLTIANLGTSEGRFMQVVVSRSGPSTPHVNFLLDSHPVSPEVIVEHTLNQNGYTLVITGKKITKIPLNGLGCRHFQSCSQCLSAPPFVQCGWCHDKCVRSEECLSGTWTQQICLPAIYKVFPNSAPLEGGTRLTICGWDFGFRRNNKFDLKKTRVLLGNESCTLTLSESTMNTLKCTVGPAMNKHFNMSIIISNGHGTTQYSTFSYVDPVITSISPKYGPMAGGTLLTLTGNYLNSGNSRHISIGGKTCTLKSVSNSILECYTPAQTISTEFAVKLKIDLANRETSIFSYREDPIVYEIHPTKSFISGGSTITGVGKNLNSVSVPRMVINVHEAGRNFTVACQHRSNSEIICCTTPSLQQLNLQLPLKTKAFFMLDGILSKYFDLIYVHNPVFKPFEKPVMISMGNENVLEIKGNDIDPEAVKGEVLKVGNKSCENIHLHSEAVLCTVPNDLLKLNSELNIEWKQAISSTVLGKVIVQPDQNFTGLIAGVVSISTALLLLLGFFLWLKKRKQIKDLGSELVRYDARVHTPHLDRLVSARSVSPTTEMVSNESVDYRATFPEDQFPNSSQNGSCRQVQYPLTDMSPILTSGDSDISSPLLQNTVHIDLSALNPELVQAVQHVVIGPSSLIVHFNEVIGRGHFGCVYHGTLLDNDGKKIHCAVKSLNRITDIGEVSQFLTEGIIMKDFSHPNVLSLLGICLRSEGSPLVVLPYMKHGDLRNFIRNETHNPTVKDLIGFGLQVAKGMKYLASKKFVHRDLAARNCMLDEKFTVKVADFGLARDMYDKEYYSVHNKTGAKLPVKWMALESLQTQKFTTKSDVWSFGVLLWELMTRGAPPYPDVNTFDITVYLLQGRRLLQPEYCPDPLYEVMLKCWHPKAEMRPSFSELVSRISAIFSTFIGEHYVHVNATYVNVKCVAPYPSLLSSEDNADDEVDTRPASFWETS
# assay-notes: flow cytometry, C-MET CHO-K1 cells
Listed next: entries and their corresponding EC50.
metric-name: EC50 (nM)

MH9 (antibody, IgG4, V domains shown) VH: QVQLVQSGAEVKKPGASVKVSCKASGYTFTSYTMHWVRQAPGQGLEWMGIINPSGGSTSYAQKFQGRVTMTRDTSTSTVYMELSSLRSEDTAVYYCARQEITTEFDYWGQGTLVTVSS VL: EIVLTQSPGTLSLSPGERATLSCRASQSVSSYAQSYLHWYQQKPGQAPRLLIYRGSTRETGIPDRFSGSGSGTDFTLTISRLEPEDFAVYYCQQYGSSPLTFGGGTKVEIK
1.23
08B12 (antibody, IgG4, V domains shown) VH: QVQLVQSGAEVKKPGASVKVSCKASGYIFTAYSMHWVRQAPGQGLEWMGWIKPNNGSTNYAQKFQGRVTMTRDTSTSTVYMELSSLRSEDTAVYYCARTEITTEFDYWGQGTLVTVSS VL: EIVLTQSPGTLSLSPGERATLSCRASQSVDSYANSYLHWYQQKPGQAPRLLIYRGSTRETGIPDRFSGSGSGTDFTLTISRLEPEDFAVYYCQQSKSDPLTFGGGTKVEIK
11.7

Each recorded value in this set is attributed to patent US20260042850A1.
